The reported measurements were obtained from patent US20240116985A1.

# measurement_notes: CHI Log D procedure
# Assay type: physicochemical
# condition_context: pH 7.4, CHI Log D
Entries annotated with measured chromatographic logD
API doc: respond with a numeric literal and nothing else, no unit.

Consider the worked cases shown below.
1. CC(=O)N1CCC[C@]12CC=CCCCC1(CCCC=CCCCCCC[C@@](C)(C(=O)N[C@@H](Cc3ccccc3)C(=O)N[C@@H](Cc3c[nH]c4ccccc34)C(=O)N[C@@H](CCC(N)=O)C(N)=O)NC(=O)[C@H](C(C)C)NC(=O)[C@H](Cc3ccccc3)NC(=O)[C@H](C)NC(=O)[C@H](C)NC(=O)[C@H](Cc3cccc(F)c3)NC(=O)[C@H](CC(=O)O)NC1=O)NC(=O)[C@H](C)NC(=O)[C@H](CC(=O)O)NC2=O (stereo partly drawn) = 2.91
2. COc1ccc2[nH]cc(C[C@H](NC(=O)[C@H](Cc3ccccc3)NC(=O)[C@]3(C)CCCCCCC=CCCCC4(CCCC=CC[C@]5(CCCN5C(C)=O)C(=O)N[C@@H](CC(=O)O)C(=O)N[C@@H](C)C(=O)N4)C(=O)N[C@@H](CC(=O)O)C(=O)N[C@@H](CCC(=O)O)C(=O)N[C@@H](C)C(=O)N[C@@H](C)C(=O)N[C@@H](Cc4ccccc4)C(=O)N[C@@H](C(C)C)C(=O)N3)C(=O)N[C@@H](CCC(N)=O)C(N)=O)c2c1 (stereo partly drawn) = 2

Pending compound:
What value of chromatographic logD has been reported for the following compound? CC(=O)N1CCC[C@]12CC=CCCCC1(CCCC=CCCCOC(=O)N3CC[C@@](C(=O)N[C@@H](Cc4ccsc4)C(=O)N[C@@H](Cc4csc5ccccc45)C(=O)N[C@@H](CCC(N)=O)C(N)=O)(C3)NC(=O)[C@H](CC(N)=O)NC(=O)[C@H](Cc3ccccc3)NC(=O)[C@H](C)NC(=O)[C@H](C)NC(=O)[C@H](Cc3c[nH]cn3)NC(=O)[C@H](CC(=O)O)NC1=O)NC(=O)[C@H](CC(C)(C)C)NC(=O)[C@H](CC(=O)O)NC2=O (stereo partly drawn)
2.62
